method description: Solubility of powder in urine
assay context: Example 7; 16 mM in 50 milliliters of urine
measured attribute: Soluble?

>>> result("Nc1c(S(=O)(=O)O)cc(Nc2ccc(Nc3nc(Cl)nc(Nc4cccc(S(=O)(=O)O)c4)n3)c(S(=O)(=O)O)c2)c2c1C(=O)c1ccccc1C2=O")
"Yes"
>>> result("Cc1cc(O)c2c(c1)C(=O)c1cc(O)cc(O)c1C2=O")
"No"

###

Provide the recorded Urine Odor Ranking 7 (number of panelists) for the entries that follow.
method description: Example 4 urine odor panel ranking
Set-up: species or system Human
assay context: 8 millimolar in urine, scale 1 to 7, 7 most malodorous
Numbers only.

>>> quantitative_result("Nc1c(S(=O)(=O)O)cc(Nc2ccc(Nc3nc(Cl)nc(Nc4cccc(S(=O)(=O)O)c4)n3)c(S(=O)(=O)O)c2)c2c1C(=O)c1ccccc1C2=O [Procion Blue HB, Reactive Blue 2 (Procion Blue HB)]")
1
>>> quantitative_result("Nc1ccc(O)c2c1C(=O)c1ccccc1C2=O [1-Amino-4-Hydroxyanthraquinone, 1-amino-4-hydroxyanthraquinone]")
1
>>> quantitative_result("CCNc1ccc(NCC)c2c1C(=O)c1ccccc1C2=O [Solvent Blue 59]")
1

For the compound shown here, O=C1c2ccccc2C(=O)c2c(O)ccc(O)c21 [1,4-Dihydroxyanthraquinone, 1,4-dihydroxyanthraquinone] , give the reported Urine Odor Ranking 7 (number of panelists).
1

###

method description: Example 3 secondary (non-urine) odor ranking
Set-up: species or system Human
assay context: Example 3 first grouping; individual panelist scores; scale 1 to 5, 5 extremely unpleasant
Method: The effectiveness of various quinone compounds in reducing urine odor was compared. […] Human female urine was initially collected and pooled by a nurse on staff at Kimberly-Clark Corporation. The pooled urine was added to mason jars in 50-milliliter aliquots using an automated pipette aid. […] The mason jars were placed in an incubator overnight at 37° C. […]
Provide the recorded Secondary Odor Ranking for the entries that follow.
Answers are plain numbers.

Consider the reported Secondary Odor Ranking for these compounds:
>>> quantitative_result("Nc1c(S(=O)(=O)[O-])cc(Nc2ccccc2)c2c1C(=O)c1ccccc1C2=O.[Na+]")
2
>>> quantitative_result("Cc1ccc(Nc2cccc3c2C(=O)c2cccc(Nc4ccc(C)cc4S(=O)(=O)[O-])c2C3=O)c(S(=O)(=O)[O-])c1.[Na+].[Na+]")
1
>>> quantitative_result("Cc1ccc(Nc2ccc(Nc3ccc(C)cc3S(=O)(=O)[O-])c3c2C(=O)c2c(O)ccc(O)c2C3=O)c(S(=O)(=O)[O-])c1.[Na+].[Na+]")
1

For the compound shown here, CCN(Cc1cccc(S(=O)(=O)[O-])c1)c1ccc(C(=C2C=CC(=[N+](CC)Cc3cccc(S(=O)(=O)[O-])c3)C=C2)c2ccccc2S(=O)(=O)[O-])cc1.[Na+].[Na+] [FD&C Blue No. 1, FD&C Blue No.1, reference compound] , give the reported Secondary Odor Ranking.
3

###

method description: Example 3 urine odor panel ranking
Parameters: species or system Human
assay context: Example 3 top performers of both groupings; after 24 hours; 1 least, 10 most malodorous
measured attribute: Urine Odor Ranking 2 (number of panelists)
One number for each entry.

>>> quantitative_result("CCCCc1ccc(Nc2ccc(Nc3ccc(CCCC)cc3S(=O)(=O)[O-])c3c2C(=O)c2ccccc2C3=O)c(S(=O)(=O)[O-])c1.[Na+].[Na+] [Acid Green 27]")
1

Value sought for every listed compound: Urine Odor Ranking 2 (number of panelists).
1. Cc1ccc(Nc2ccc(Nc3ccc(C)cc3S(=O)(=O)[O-])c3c2C(=O)c2ccccc2C3=O)c(S(=O)(=O)[O-])c1.[Na+].[Na+] [D&C Green No. 5]
2. Cc1ccc(Nc2ccc(Nc3ccc(C)cc3S(=O)(=O)[O-])c3c2C(=O)c2c(O)ccc(O)c2C3=O)c(S(=O)(=O)[O-])c1.[Na+].[Na+] [Acid Green 41]
3. Cc1ccc(Nc2ccc(Nc3ccc(C)cc3S(=O)(=O)[O-])c3c2C(=O)c2ccccc2C3=O)c(S(=O)(=O)[O-])c1.[Na+].[Na+] [Acid Green 25]

[1, 2, 1]

###

method description: Example 7 urine odor panel ranking (16 millimolar)
Design: species or system Human
assay context: Example 7 Group F; 16 millimolar in urine; 1 least, 10 most urine malodor
Procedure: The effectiveness of various quinone compounds in reducing urine odor was compared. […] Human female urine was initially collected and pooled at Kimberly-Clark Corporation. The pooled urine was added to mason jars in 50-milliliter aliquots using an automated pipette aid. […]
measured attribute: Urine Odor Ranking 1 (number of panelists)
Numbers only.

>>> quantitative_result("Cc1ccc(Nc2ccc(Nc3ccc(C)cc3S(=O)(=O)[O-])c3c2C(=O)c2ccccc2C3=O)c(S(=O)(=O)[O-])c1.[Na+].[Na+]")
2
>>> quantitative_result("Nc1c(S(=O)(=O)O)cc(Nc2ccc(Nc3nc(Cl)nc(Nc4cccc(S(=O)(=O)O)c4)n3)c(S(=O)(=O)O)c2)c2c1C(=O)c1ccccc1C2=O")
1
>>> quantitative_result("CC(=O)Nc1ccc(Nc2cc(S(=O)(=O)[O-])c(N)c3c2C(=O)c2ccccc2C3=O)cc1.[Na+]")
1

For the compound shown here, Cc1cc(C)c(S(=O)(=O)[O-])c(C)c1Nc1ccc(Nc2c(C)cc(C)c(S(=O)(=O)[O-])c2C)c2c1C(=O)c1ccccc1C2=O.[Na+].[Na+] , give the reported Urine Odor Ranking 1 (number of panelists).
1

###

method description: Redox potential (redox potentiometry)
Assay type: physicochemical
Provide the recorded redox potential for the entries that follow.
One number for each entry, in mV.

Consider the reported redox potential for these compounds:
>>> quantitative_result("O=C1C=C(S(=O)(=O)O)C(=O)c2ccccc21 [2-sulfonic acid naphthaquinone]")
"−60"
>>> quantitative_result("O=C1c2ccc(S(=O)(=O)O)cc2C(=O)c2cc(S(=O)(=O)O)ccc21 [2,7-disulfonic acid anthraquinone]")
"−313"
>>> quantitative_result("O=C1c2ccccc2C(=O)c2cc(S(=O)(=O)O)ccc21 [2-sulfonic acid anthraquinone]")
"−380"

Value sought for every listed compound: redox potential.
1. Nc1c(S(=O)(=O)[O-])cc(Nc2ccccc2)c2c1C(=O)c1ccccc1C2=O.[Na+] [Acid Blue 25]
2. O=C1c2ccc(S(=O)(=O)O)cc2C(=O)c2ccc(S(=O)(=O)O)cc21 [2,6-disulfonic acid anthraquinone]

1: −605; 2: −325

###

method description: Example 7 urine odor panel ranking (16 millimolar)
Design: species or system Human
assay context: Example 7 Group E; 16 millimolar in urine; 1 least, 10 most urine malodor
Experimental: The effectiveness of various quinone compounds in reducing urine odor was compared. […] Human female urine was initially collected and pooled at Kimberly-Clark Corporation. The pooled urine was added to mason jars in 50-milliliter aliquots using an automated pipette aid. […]
measured attribute: Urine Odor Ranking 1 (number of panelists)
One number for each entry.

Consider the reported Urine Odor Ranking 1 (number of panelists) for these compounds:
>>> quantitative_result("Nc1c(S(=O)(=O)[O-])cc(Nc2cccc(S(=O)(=O)CCOS(=O)(=O)[O-])c2)c2c1C(=O)c1ccccc1C2=O.[Na+].[Na+]")
1
>>> quantitative_result("CCCCc1ccc(Nc2ccc(Nc3ccc(CCCC)cc3S(=O)(=O)[O-])c3c2C(=O)c2ccccc2C3=O)c(S(=O)(=O)[O-])c1.[Na+].[Na+]")
1
>>> quantitative_result("Cc1cc(C)c(Nc2cc(S(=O)(=O)[O-])c(N)c3c2C(=O)c2ccccc2C3=O)c(C)c1.[Na+]")
1

Next compound, please.
For the compound shown here, Cc1c(C(=O)O)c(O)cc2c1C(=O)c1c(O)c([C@@H]3O[C@H](CO)[C@@H](O)[C@H](O)[C@H]3O)c(O)c(O)c1C2=O , give the reported Urine Odor Ranking 1 (number of panelists).
2

###

method description: Example 5 urine odor panel ranking
Design: species or system Human
assay context: Example 5 Group B; 8 mM in urine; 1 least, 8 most urine malodor
Provide the recorded Average Rankings (Group B), Avg. Score for the entries that follow.
Give bare numbers.

Consider the reported Average Rankings (Group B), Avg. Score for these compounds:
>>> quantitative_result("Cc1cc(C)c(S(=O)(=O)[O-])c(C)c1Nc1ccc(Nc2c(C)cc(C)c(S(=O)(=O)[O-])c2C)c2c1C(=O)c1ccccc1C2=O.[Na+].[Na+]")
6.25
>>> quantitative_result("Nc1cc(S(=O)(=O)[O-])c(O)c2c1C(=O)c1c(O)c(S(=O)(=O)[O-])cc(N)c1C2=O.[Na+].[Na+]")
3.75
>>> quantitative_result("Cc1cc(C)c(Nc2cc(S(=O)(=O)[O-])c(N)c3c2C(=O)c2ccccc2C3=O)c(C)c1.[Na+]")
5

Value sought for every listed compound: Average Rankings (Group B), Avg. Score.
1. CC(=O)Nc1ccc(Nc2cc(S(=O)(=O)[O-])c(N)c3c2C(=O)c2ccccc2C3=O)cc1.[Na+]
2. Nc1c(S(=O)(=O)[O-])cc(Nc2cccc(S(=O)(=O)CCOS(=O)(=O)[O-])c2)c2c1C(=O)c1ccccc1C2=O.[Na+].[Na+]
3. Cc1ccc(Nc2ccc(Nc3ccc(C)cc3S(=O)(=O)[O-])c3c2C(=O)c2ccccc2C3=O)c(S(=O)(=O)[O-])c1.[Na+].[Na+]

1. 4.25
2. 3
3. 4.25
